Recorded melting point by entry

## Input State the recorded melting point for this entry: CCOC(=O)C1=C(N)N(c2ccc(C)cc2)C2=C(C(=O)CC(C)(C)C2)C1c1ccccn1 (racemic) [12b]
## Output 196 to 198 °C

## Input Check CCOC(=O)C1=C(N)N(c2ccccc2)C2=C(C(=O)CC(C)(C)C2)C1c1ccc(F)cc1 (racemic) too.
## Output 215 to 217 °C

## Input Check CCOC(=O)C1=C(N)N(c2ccccc2)C2=C(C(=O)CC(C)(C)C2)C1c1ccc(OC)cc1 (racemic) too.
## Output 169 to 171 °C

Others:
## Input State the recorded melting point for this entry: CCOC(=O)C1=C(N)N(c2ccc(Cl)cc2)C2=C(C(=O)CC(C)(C)C2)C1c1ccccc1Cl (racemic)
## Output 179 to 181 °C

## Input Check CCOC(=O)C1=C(N)N(c2ccc(Cl)cc2)C2=C(C(=O)CC(C)(C)C2)C1c1ccccc1OC (racemic) too.
## Output 228 to 230 °C

## Input Check CCOC(=O)C1=C(N)N(c2ccc(C)cc2)C2=C(C(=O)CC(C)(C)C2)C1c1ccccc1Br (racemic) too.
## Output 236 to 238 °C

## Input Check CCOC(=O)C1=C(N)N(c2ccc(Cl)cc2)C2=C(C(=O)CC(C)(C)C2)C1c1ccc(N2CCOCC2)cc1 (racemic) too.
## Output 175 to 177 °C
